System: methane emissions from sheep
test_method_notes: Example 2: in vivo study on sheep methane emissions (respiration chambers, dosing in feed twice daily)
experimental_setup: Average Days 1-3, dose mg/day: Compound 60 412, 69 311, 67 414, 64 344
quantity_name: CH4 Inhibition [%] Average Days 1-3 (%)

{"columns": ["molecule", "units_text", "readout_value"],
 "data": [
  ["O=C(O)CCC(=O)N1N=C(c2ccc(-c3ccc(OC(F)(F)F)c(F)c3)cc2)CC1c1ccc2nccnc2c1 (stereo not shown)", "%", 36.5],
  ["CC(C)S(=O)(=O)NC(=O)CCC(=O)N1N=C(c2ccc(-c3ccccc3)cc2)CC1c1ccc2nccnc2c1 (stereo not shown)", "%", 23.5],
  ["O=C(O)c1cccc(N2N=C(c3ccc(Cl)cc3)CC2c2ccc3nccnc3c2)c1 (stereo not shown)", "%", 26.2],
  ["CC(C)Oc1ccc(-c2ccc(C3=NN(C(=O)CCC(=O)O)C(c4ccc5nccnc5c4)C3)cc2)cc1 (stereo not shown)", "%", 85.8]
]}

====

Test system: methane production in rumen fluid
test_method_notes: Rumen in vitro (RIV) assay, methane production from rumen fluid incubations
Type: cell-based, cattle
experimental_setup: Bos taurus, 10 μM; read-out: RIV % methane reduction +/− SD
# label = true if inhibition at 10 µM >= 70% else false

{"columns": ["molecule", "classification"],
 "data": [
  ["COCc1ccc(-c2ccc(C3=NN(C(=O)CCC(=O)O)C(c4ccc5nccnc5c4)C3)cc2)cc1 (stereo not shown)", "false"],
  ["O=C(CCC(=O)N1N=C(c2cccc(-c3ccccc3)c2)CC1c1ccc2nccnc2c1)NS(=O)(=O)c1ccccc1 (stereo not shown)", "true"],
  ["O=C(O)CCC(=O)N1N=C(c2cccc(-c3cccc(OC(F)(F)F)c3)c2)CC1c1ccc2nccnc2c1 (stereo not shown)", "false"],
  ["COCCOc1ccc(-c2ccc(C3=NN(C(=O)CCC(=O)O)C(c4ccc5nccnc5c4)C3)cc2)cc1 (stereo not shown)", "true"],
  ["O=C(O)CCC(=O)N1N=C(c2ccc(-c3ccc(OC4CC4)cc3)cc2)CC1c1ccc2nccnc2c1 (stereo not shown)", "true"],
  ["CC(C)c1ccc(-c2ccc(C3=NN(C(=O)CCC(=O)O)C(c4ccc5nccnc5c4)C3)cc2)cc1 (stereo not shown)", "true"],
  ["O=C(O)CCC(=O)N1N=C(c2ccc(Cl)cc2)CC1c1ccc2c(c1)OC(F)(F)O2 (stereo not shown)", "false"]
]}

====

Tested on: methane production in rumen fluid
test_method_notes: Rumen in vitro (RIV) assay, methane production from rumen fluid incubations
Type: cell-based, cattle
experimental_setup: Bos taurus, 10 μM; read-out: RIV % methane reduction +/− SD

{"columns": ["compound", "units_text", "op", "inhibition at 10 µM"],
 "data": [
  ["CC(C)Oc1ccc(-c2ccc(C3=NN(C(=O)CCC(=O)NS(=O)(=O)C(C)C)C(c4ccc5nccnc5c4)C3)cc2)cc1 (stereo not drawn) [Compound 120]", "%", "=", 70.4],
  ["O=C(O)CCC(=O)N1N=C(c2ccccc2-c2ccccc2)CC1c1ccc2nccnc2c1 (stereo not drawn) [Compound 12]", "%", "=", 51.6],
  ["O=C(O)CCC(=O)N1N=C(c2ccc(-c3ccccc3)cc2)CC1c1ccc2c(c1)OCCO2 (stereo not drawn) [Compound 40]", "%", "=", 39.8],
  ["COc1cc(C2CC(c3ccc(Cl)cc3)=NN2C(=O)CCC(=O)O)ccc1O (stereo not drawn) [Compound 45]", "%", "=", 9.9],
  ["O=C(O)CCC(=O)N1N=C(c2ccc(-c3ccc(OC(F)(F)F)c(F)c3)cc2)CC1c1ccc2nccnc2c1 (stereo not drawn) [Compound 67]", "%", "=", 92.4],
  ["COc1ccc(-c2ccc(C3=NN(C(=O)CCC(=O)O)C(c4ccc5nccnc5c4)C3)cc2)cc1 (stereo not drawn) [Compound 25]", "%", "=", 83.7],
  ["O=C(O)CCC(=O)N1N=C(c2ccc(-c3ccc(OC(F)(F)F)cc3F)cc2)CC1c1ccc2nccnc2c1 (stereo not drawn) [Compound 101]", "%", "=", 65.7],
  ["O=C(O)CCC(=O)N1N=C(c2ccc(-c3ccc(Cl)c(Cl)c3)cc2)CC1c1ccc2nccnc2c1 (stereo not drawn) [Compound 27]", "%", "=", 48.3],
  ["O=C(O)CCC(=O)N1N=C(c2ccc(-c3ccccc3Cl)cc2)CC1c1ccc2nccnc2c1 (stereo not drawn) [Compound 17]", "%", "=", 74.2],
  ["CS(=O)(=O)NC(=O)CCC(=O)N1N=C(c2cccc(-c3ccccc3)c2)CC1c1ccc2nccnc2c1 (stereo not drawn) [Compound 68]", "%", "=", 85.4],
  ["CS(=O)(=O)NC(=O)CCC(=O)N1N=C(c2ccc(-c3ccccc3)cc2)CC1c1ccc2nccnc2c1 (stereo not drawn) [Compound 57]", "%", "=", 62.7],
  ["O=C(CCC(=O)N1N=C(c2ccc(-c3ccccc3)cc2)CC1c1ccc2nccnc2c1)NS(=O)(=O)c1ccccc1 (stereo not drawn) [Compound 123]", "%", "=", 77],
  ["CN(C)S(=O)(=O)NC(=O)CCC(=O)N1N=C(c2ccc(OC(F)(F)F)cc2)CC1c1ccc2nccnc2c1 (stereo not drawn) [Compound 126]", "%", "=", 25.5],
  ["O=C(O)CCC(=O)N1N=C(c2ccc(Cl)cc2)CC1c1ccc2nsnc2c1 (stereo not drawn) [Compound 36]", "%", "=", 33.4],
  ["COc1ccc(-c2cccc(C3=NN(C(=O)CCC(=O)O)C(c4ccc5nccnc5c4)C3)c2)cc1 (stereo not drawn) [Compound 99]", "%", "<", 5],
  ["O=C(O)c1cccc(N2N=C(c3cccc(-c4ccccc4)c3)CC2c2ccc3nccnc3c2)c1 (stereo not drawn) [Compound 114]", "%", "=", 58.3],
  ["CC(C)(C)Oc1ccc(-c2ccc(C3=NN(C(=O)CCC(=O)O)C(c4ccc5nccnc5c4)C3)cc2)cc1 (stereo not drawn) [Compound 81]", "%", "=", 29.8],
  ["O=C(O)CCC(=O)N1N=C2c3ccc(-c4ccccc4)cc3CCC2C1c1ccc2nccnc2c1 (stereo not drawn) [Compound 75]", "%", "=", 87.5],
  ["Cc1ccccc1S(=O)(=O)NC(=O)CCC(=O)N1N=C(c2ccc(Cl)cc2)CC1c1ccc2nccnc2c1 (stereo not drawn) [Compound 124]", "%", "=", 12.7],
  ["O=C(O)CCC(=O)N1N=C2c3ccc(-c4ccc(OC(F)(F)F)cc4)cc3CCC2C1c1ccc2nccnc2c1 (stereo not drawn) [Compound 76]", "%", "=", 77.3],
  ["O=C(O)CCC(=O)N1N=C(c2ccc(C3CCCCC3)cc2)CC1c1ccc2nccnc2c1 (stereo not drawn) [Compound 4]", "%", "<", 5],
  ["O=C(O)CCC(=O)N1N=C2c3ccc(Cl)cc3CCC2C1c1ccc2nccnc2c1 (stereo not drawn) [Compound 73]", "%", "=", 18.8],
  ["O=C(O)CCC(=O)N1N=C(c2ccc(-c3ccc(N4CCCCC4)cc3)cc2)CC1c1ccc2nccnc2c1 (stereo not drawn) [Compound 96]", "%", "=", 8.2],
  ["COc1cccc(-c2ccc(C3=NN(C(=O)CCC(=O)O)C(c4ccc5nccnc5c4)C3)cc2)c1 (stereo not drawn) [Compound 90]", "%", "=", 6.9],
  ["CN(C)S(=O)(=O)NC(=O)CCC(=O)N1N=C(c2cccc(-c3ccccc3)c2)CC1c1ccc2nccnc2c1 (stereo not drawn) [Compound 127]", "%", "=", 84.1],
  ["O=C(O)CCC(=O)N1N=C2c3cc(-c4ccccc4)ccc3CCC2C1c1ccc2nccnc2c1 (stereo not drawn) [Compound 74]", "%", "=", 87.8],
  ["CC(C)(C)S(=O)(=O)NC(=O)CCC(=O)N1N=C(c2ccc(Cl)cc2)CC1c1ccc2nccnc2c1 (stereo not drawn) [Compound 121]", "%", "=", 9.8],
  ["O=C(O)CCC(=O)N1N=C(c2ccc(-c3ccc(OC4CCCC4)cc3)cc2)CC1c1ccc2nccnc2c1 (stereo not drawn) [Compound 85]", "%", "=", 71.8],
  ["CN(C)c1ccc(-c2ccc(C3=NN(C(=O)CCC(=O)O)C(c4ccc5nccnc5c4)C3)cc2)cc1 (stereo not drawn) [Compound 95]", "%", "=", 68.3],
  ["O=C(O)CCC(=O)N1N=C(c2ccc(-c3ccc(OC(F)F)cc3)cc2)CC1c1ccc2nccnc2c1 (stereo not drawn) [Compound 65]", "%", "=", 90.2]
]}

====

CH4 Inhibition [%]: recorded values
Tested on: methane emissions from sheep
test_method_notes: Example 2: in vivo study on sheep methane emissions (respiration chambers, dosing in feed twice daily)
experimental_setup: Day 2, dose mg/day: Compound 60 412, 69 311, 67 414, 64 344

{"columns": ["compound", "CH4 Inhibition [%], %"],
 "data": [
  ["CC(C)S(=O)(=O)NC(=O)CCC(=O)N1N=C(c2ccc(-c3ccccc3)cc2)CC1c1ccc2nccnc2c1 (stereo not shown) [Compound 69]", 26.3],
  ["O=C(O)c1cccc(N2N=C(c3ccc(Cl)cc3)CC2c2ccc3nccnc3c2)c1 (stereo not shown) [Compound 60]", 20.9],
  ["CC(C)Oc1ccc(-c2ccc(C3=NN(C(=O)CCC(=O)O)C(c4ccc5nccnc5c4)C3)cc2)cc1 (stereo not shown) [Compound 64]", 85.6],
  ["O=C(O)CCC(=O)N1N=C(c2ccc(-c3ccc(OC(F)(F)F)c(F)c3)cc2)CC1c1ccc2nccnc2c1 (stereo not shown) [Compound 67]", 36.7]
]}

Value source: patent US20260053171A1
